test: activity coefficient (dimensionless); of the first substance listed, at infinite dilution; xn = mol fraction of the nth substance listed; details: 358.15 K; 101 kPa; Liquid; Chromatography; x1 = 0
Provide the recorded activity coefficient for the entries that follow.
One number for each entry.

Examples from the recorded data:
>>> quantitativeresult("C=C(C)c1ccccc1 [(1-methylethenyl)benzene] + CCCC[n+]1cccc(C)c1.N#C[N-]C#N")
2.44
>>> quantitativeresult("Cc1cccc(C)c1 [1,3-dimethylbenzene] + CCCC[n+]1cccc(C)c1.N#C[N-]C#N")
3.2
>>> quantitativeresult("CC(C)CC(C)(C)C [2,2,4-trimethylpentane] + CCCC[n+]1cccc(C)c1.N#C[N-]C#N")
67
>>> quantitativeresult("C=CCCC [1-pentene] + CCCC[n+]1cccc(C)c1.N#C[N-]C#N")
12.6
>>> quantitativeresult("C=CCCCCC [1-heptene] + CCCC[n+]1cccc(C)c1.N#C[N-]C#N")
25.9
>>> quantitativeresult("CC1CCCCC1 [methylcyclohexane] + CCCC[n+]1cccc(C)c1.N#C[N-]C#N")
23.9

Please supply activity coefficient for each of the following items, keeping them in order.
1. C1CCOC1 [tetrahydrofuran] + CCCC[n+]1cccc(C)c1.N#C[N-]C#N
2. CCc1ccccc1 [ethylbenzene] + CCCC[n+]1cccc(C)c1.N#C[N-]C#N
3. CCOCC [diethyl ether] + CCCC[n+]1cccc(C)c1.N#C[N-]C#N
4. CCC(C)CC [3-methylpentane] + CCCC[n+]1cccc(C)c1.N#C[N-]C#N
5. CCC(=O)CC [pentan-3-one] + CCCC[n+]1cccc(C)c1.N#C[N-]C#N
6. c1ccsc1 [thiophene] + CCCC[n+]1cccc(C)c1.N#C[N-]C#N
7. C=CCCCCCCCC [1-decene] + CCCC[n+]1cccc(C)c1.N#C[N-]C#N
8. C#CCCCC [1-hexyne] + CCCC[n+]1cccc(C)c1.N#C[N-]C#N

Solution:
1: 1.5; 2: 3.35; 3: 6.19; 4: 34.7; 5: 1.97; 6: 0.937; 7: 78.1; 8: 4.62

---

Provide the recorded activity coefficient for the entries that follow.
experiment: activity coefficient (dimensionless); of the first substance listed, at infinite dilution; xn = mol fraction of the nth substance listed; settings: 318.15 K; 101 kPa; Liquid; Chromatography; x1 = 0
Answers are plain numbers.

>>> quantitativeresult("C=CCCCCC [1-heptene] + CCCC[n+]1cccc(C)c1.N#C[N-]C#N")
31.2
>>> quantitativeresult("CCC(C)CC [3-methylpentane] + CCCC[n+]1cccc(C)c1.N#C[N-]C#N")
47

Please supply activity coefficient for each of the following items, keeping them in order.
1. CCCCCC [hexane] + CCCC[n+]1cccc(C)c1.N#C[N-]C#N
2. C=CCCCC [hex-1-ene] + CCCC[n+]1cccc(C)c1.N#C[N-]C#N
3. C=CCCCCCC [oct-1-ene] + CCCC[n+]1cccc(C)c1.N#C[N-]C#N
4. C1CCCCCCC1 [cyclooctane] + CCCC[n+]1cccc(C)c1.N#C[N-]C#N

Solution:
1. 51.7
2. 21.4
3. 46.7
4. 32

---

experiment: activity coefficient (dimensionless); of the first substance listed, at infinite dilution; xn = mol fraction of the nth substance listed; settings: 328.15 K; 101 kPa; Liquid; Chromatography; x1 = 0
Hi, to clarify the labels: t covers activity coefficient from 20 upward, f covers anything below 20.

Use these answered entries as a reference point.
>>> class("C1CCCCCCC1 [cyclooctane] + CCCC[n+]1cccc(C)c1.N#C[N-]C#N")
"t"
>>> class("Cc1cccc(C)c1 [1,3-dimethylbenzene] + CCCC[n+]1cccc(C)c1.N#C[N-]C#N")
"f"
>>> class("CCC(C)(C)OC [2-methoxy-2-methylbutane] + CCCC[n+]1cccc(C)c1.N#C[N-]C#N")
"f"
>>> class("CC(C)CC(C)(C)C [2,2,4-trimethylpentane] + CCCC[n+]1cccc(C)c1.N#C[N-]C#N")
"t"
>>> class("CCCC(C)=O [pentan-2-one] + CCCC[n+]1cccc(C)c1.N#C[N-]C#N")
"f"

--- query ---
Exercise: hey, is activity coefficient for this one >= 20? CCC(C)(C)C [2,2-dimethylbutane] + CCCC[n+]1cccc(C)c1.N#C[N-]C#N
Solution: t

From: the NIST ThermoML archive (doi:10.1016/j.jct.2013.09.007)
